- experimentalSystem: CD36 (Rattus norvegicus (Rat))
- Sequence (Q07969 whole entry): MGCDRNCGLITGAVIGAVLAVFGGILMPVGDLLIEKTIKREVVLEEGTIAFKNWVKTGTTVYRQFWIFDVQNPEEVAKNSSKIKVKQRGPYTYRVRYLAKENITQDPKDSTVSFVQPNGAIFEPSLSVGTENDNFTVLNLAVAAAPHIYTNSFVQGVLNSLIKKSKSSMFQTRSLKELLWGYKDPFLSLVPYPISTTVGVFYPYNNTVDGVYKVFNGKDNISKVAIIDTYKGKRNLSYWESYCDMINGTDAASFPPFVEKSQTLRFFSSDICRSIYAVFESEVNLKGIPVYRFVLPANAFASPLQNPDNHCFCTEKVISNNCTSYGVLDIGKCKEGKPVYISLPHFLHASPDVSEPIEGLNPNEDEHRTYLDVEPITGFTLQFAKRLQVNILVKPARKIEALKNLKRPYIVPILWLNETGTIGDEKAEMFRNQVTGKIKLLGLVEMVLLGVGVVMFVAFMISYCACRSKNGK
- experimentalProtocol: CD36 receptor covalent photolabelling binding assay, competition with [125I]Tyr-Bpa-Ala-hexarelin on rat cardiac membranes
- conditionInfo: compared with parent peptide GHRP-6 or hexarelin
Starred links: 1 amine or outer side, 2 acyl side, 3 side chain; linkers in the order of their positions; H or OH if unused. Non-standard residues stand in square brackets, D forms with d. Residues, ends and D or L forms follow the SMILES beside them. azaTyr = O=C(N(Cc1ccc(O)cc1)N[*:1])[*:2]; azaPhe = O=C(N(Cc1ccccc1)N[*:1])[*:2]
measure: binding activity/affinity at CD36 in words

molecule	experimentalSystem	reportedValue
C[C@H](N)C(=O)NN(Cc1ccccc1)C(=O)N[C@@H](C)C(=O)N[C@@H](Cc1c[nH]c2ccccc12)C(=O)N[C@H](Cc1ccccc1)C(=O)N[C@@H](CCCCN)C(N)=O [CP-1A (iv), Ala-azaPhe-Ala-Trp-D-Phe-Lys-NH2] (H-A[azaPhe]AW[dF]K-NH2)	CD36 (Rattus norvegicus (Rat))	without major change
C[C@H](N)C(=O)N[C@H](Cc1c[nH]c2ccccc12)C(=O)N[C@@H](C)C(=O)NN(Cc1ccc(O)cc1)C(=O)N[C@H](Cc1ccccc1)C(=O)N[C@@H](CCCCN)C(N)=O [ZS555-F40, Ala-D-Trp-Ala-azaTyr-D-Phe-Lys-NH2] (H-A[dW]A[azaTyr][dF]K-NH2)	CD36 (Rattus norvegicus (Rat))	without major change
